Biological target: Thrombopoietin receptor (Homo sapiens, UniProt P40238)
Sequence (P40238 whole entry): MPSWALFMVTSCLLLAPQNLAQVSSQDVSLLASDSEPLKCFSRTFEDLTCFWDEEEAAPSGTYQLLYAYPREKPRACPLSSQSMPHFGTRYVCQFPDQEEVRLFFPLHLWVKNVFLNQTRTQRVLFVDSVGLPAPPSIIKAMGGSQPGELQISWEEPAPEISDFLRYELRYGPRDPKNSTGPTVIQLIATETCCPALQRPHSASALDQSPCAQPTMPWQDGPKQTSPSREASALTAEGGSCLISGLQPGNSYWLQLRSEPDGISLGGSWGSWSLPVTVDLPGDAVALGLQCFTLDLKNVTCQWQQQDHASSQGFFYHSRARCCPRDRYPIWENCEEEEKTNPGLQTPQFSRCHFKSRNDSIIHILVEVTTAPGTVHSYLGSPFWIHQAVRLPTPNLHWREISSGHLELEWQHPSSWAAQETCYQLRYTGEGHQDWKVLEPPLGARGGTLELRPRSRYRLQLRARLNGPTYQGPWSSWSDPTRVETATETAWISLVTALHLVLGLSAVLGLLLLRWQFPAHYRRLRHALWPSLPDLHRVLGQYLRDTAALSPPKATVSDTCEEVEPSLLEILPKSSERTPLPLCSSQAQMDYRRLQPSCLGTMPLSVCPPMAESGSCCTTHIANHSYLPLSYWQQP
Assay: Effective concentration for thrombopoietin luciferase activity was determined in BAF-3 cells
resultType: EC50 (nM)
# unit: nM | format: bare number

smilesdata=Cc1[nH]n(-c2cccc(C(C)(C)C)c2)c(=O)c1/N=N/c1c(O)cc(S(=O)(=O)O)c2ccccc12 assaysystem="Thrombopoietin receptor (Homo sapiens, UniProt P40238)" numericreadout=70
smilesdata=Cc1[nH]n(-c2ccc(C(C)C)cc2)c(=O)c1/N=N/c1c(O)cc(S(=O)(=O)O)c2ccccc12 assaysystem="Thrombopoietin receptor (Homo sapiens, UniProt P40238)" numericreadout=70
smilesdata=Cc1[nH]n(-c2ccccc2[N+](=O)[O-])c(=O)c1/N=N/c1c(O)cc(S(=O)(=O)O)c2ccccc12 assaysystem="Thrombopoietin receptor (Homo sapiens, UniProt P40238)" numericreadout=8000
smilesdata=Cc1[nH]n(-c2ccc(I)cc2)c(=O)c1/N=N/c1c(O)cc(S(=O)(=O)O)c2ccccc12 assaysystem="Thrombopoietin receptor (Homo sapiens, UniProt P40238)" numericreadout=300
smilesdata=CC(C)(C)c1ccc(-n2[nH]c(N)c(/N=N/c3c(O)cc(S(=O)(=O)O)c4ccccc34)c2=O)cc1 assaysystem="Thrombopoietin receptor (Homo sapiens, UniProt P40238)" numericreadout=5000

q: # returns recorded EC50 (system: Thrombopoietin receptor (Homo sapiens, UniProt P40238)) for `Cc1[nH]n(-c2ccc(C(C)(C)C)cc2)c(=O)c1/N=N/c1c(O)cc(S(=O)(=O)O)c2ccccc12`
a: 20

q: # returns recorded EC50 (system: Thrombopoietin receptor (Homo sapiens, UniProt P40238)) for `Cc1[nH]n(-c2ccc(OCc3ccccc3)cc2)c(=O)c1/N=N/c1c(O)cc(S(=O)(=O)O)c2ccccc12`
a: 200

q: # returns recorded EC50 (system: Thrombopoietin receptor (Homo sapiens, UniProt P40238)) for `Cc1ccc(-n2[nH]cc(/N=N/c3c(O)cc(S(=O)(=O)O)c4ccccc34)c2=O)cc1C`
a: 100

q: # returns recorded EC50 (system: Thrombopoietin receptor (Homo sapiens, UniProt P40238)) for `Cc1ccc(-n2[nH]c(C)c(/N=N/c3c(O)cc(S(=O)(=O)O)c4ccccc34)c2=O)cc1`
a: 2000

q: # returns recorded EC50 (system: Thrombopoietin receptor (Homo sapiens, UniProt P40238)) for `Cc1ccc(-n2[nH]c(C(C)(C)C)c(/N=N/c3c(O)cc(S(=O)(=O)O)c4ccccc34)c2=O)cc1C`
a: 300

q: # returns recorded EC50 (system: Thrombopoietin receptor (Homo sapiens, UniProt P40238)) for `CC(C)(C)OC(=O)c1[nH]n(-c2ccc(C(C)(C)C)cc2)c(=O)c1/N=N/c1c(O)cc(S(=O)(=O)O)c2ccccc12`
a: 200

q: # returns recorded EC50 (system: Thrombopoietin receptor (Homo sapiens, UniProt P40238)) for `O=S(=O)(O)c1cc(O)c(/N=N/c2c(O)c(O)cc3ccccc23)c2ccccc12`
a: 2000
